study_target: human erythrocyte AChE (Homo sapiens, UniProt P22303)
Sequence (P22303-2 with tags, fused parts or gaps limits assumed): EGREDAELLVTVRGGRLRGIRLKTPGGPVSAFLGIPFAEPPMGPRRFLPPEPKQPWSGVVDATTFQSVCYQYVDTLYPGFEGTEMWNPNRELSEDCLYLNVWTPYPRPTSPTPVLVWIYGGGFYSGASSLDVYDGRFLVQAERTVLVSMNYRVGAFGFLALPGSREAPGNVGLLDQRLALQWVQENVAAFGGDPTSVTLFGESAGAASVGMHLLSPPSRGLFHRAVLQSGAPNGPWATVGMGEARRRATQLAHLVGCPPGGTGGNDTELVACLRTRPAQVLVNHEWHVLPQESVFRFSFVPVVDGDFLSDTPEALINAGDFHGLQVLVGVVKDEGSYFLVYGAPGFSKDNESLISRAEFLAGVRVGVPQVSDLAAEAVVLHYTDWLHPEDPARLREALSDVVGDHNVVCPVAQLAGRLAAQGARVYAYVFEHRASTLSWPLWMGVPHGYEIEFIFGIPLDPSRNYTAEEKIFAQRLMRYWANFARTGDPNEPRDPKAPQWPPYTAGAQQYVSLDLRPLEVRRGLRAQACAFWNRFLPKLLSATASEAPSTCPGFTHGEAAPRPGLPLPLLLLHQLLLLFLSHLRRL
protocol_details: biochemical
Type: biochemical
applied_conditions: read-out: IC50 for AChE

smiles_text	study_target	IC50 / µM
CC(C)c1ccc(NC(=O)Oc2ccc3c(c2)[C@]2(C)CCO[C@@H]2N3C)cc1	human erythrocyte AChE (Homo sapiens, UniProt P22303)	3.8

---

study_target: plasma BChE (Homo sapiens)
Sequence (P06276 29-602): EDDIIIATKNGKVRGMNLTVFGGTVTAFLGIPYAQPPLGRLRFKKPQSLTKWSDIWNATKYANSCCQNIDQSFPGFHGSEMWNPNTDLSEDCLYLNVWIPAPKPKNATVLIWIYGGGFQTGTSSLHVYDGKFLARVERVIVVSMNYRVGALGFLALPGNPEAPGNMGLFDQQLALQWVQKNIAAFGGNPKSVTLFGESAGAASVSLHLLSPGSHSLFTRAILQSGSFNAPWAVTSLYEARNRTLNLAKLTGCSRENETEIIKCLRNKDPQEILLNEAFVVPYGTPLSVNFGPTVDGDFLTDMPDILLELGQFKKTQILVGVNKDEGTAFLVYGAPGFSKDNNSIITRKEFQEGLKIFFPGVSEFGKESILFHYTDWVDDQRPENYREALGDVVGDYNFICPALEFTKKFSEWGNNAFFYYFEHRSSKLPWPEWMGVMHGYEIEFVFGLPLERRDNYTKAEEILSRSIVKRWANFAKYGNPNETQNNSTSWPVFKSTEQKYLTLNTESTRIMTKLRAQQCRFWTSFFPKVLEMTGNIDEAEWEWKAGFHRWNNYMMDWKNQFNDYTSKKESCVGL
protocol_details: biochemical
pIC50: −log10 of the molar value.
Rule: 1 for pIC50 not less than 6, 0 for anything less.

compound	group
CNC(=O)Oc1ccc2c(c1)[C@]1(C)CCO[C@@H]1N2C [(3) (-)-physovenine, (-)-physovenine, reference compound]	1
CN1CC[C@@]2(C)c3cc(OC(=O)Nc4ccccc4Cl)ccc3N(C)[C@@H]12 [Ex. 17, (-)-2'-chlorophenylcarbamoyleseroline]	0
CN1CC[C@@]2(C)c3cc(OC(=O)Nc4c(Cl)cccc4Cl)ccc3N(C)[C@@H]12	1

---

study_target: UniProt P22303
protocol_details: biochemical
Type: biochemical
applied_conditions: AChE IC50

compound	IC50 (nM)
CN1c2ccc(OC(=O)Nc3ccccc3)cc2[C@]2(C)CCO[C@H]12 [Ex. 22, phenylcarbamate of (-)-physovenol]	11.2

---

study_target: human erythrocyte AChE (Homo sapiens)
protocol_details: biochemical
Format: biochemical
pIC50: −log10 of the molar value.
Quick list: pIC50 per entry.

molecule	pIC50
CN1CC[C@@]2(C)c3cc(OC(=O)Nc4ccccc4Cl)ccc3N(C)[C@@H]12 [Ex. 17, (-)-2'-chlorophenylcarbamoyleseroline]	6.30
CN1CC[C@@]2(C)c3cc(OC(=O)Nc4c(Cl)cccc4Cl)ccc3N(C)[C@@H]12 [Ex. 18]	7.18
Cc1ccc(NC(=O)Oc2ccc3c(c2)[C@]2(C)CCN(C)[C@@H]2N3C)c(C)c1 [Ex. 8]	7.87
CCc1ccccc1NC(=O)Oc1ccc2c(c1)[C@]1(C)CCN(C)[C@@H]1N2C [Ex. 12, (-)-2'-ethylphenylcarbamoyleseroline]	8.01

---

study_target: human erythrocyte AChE (Homo sapiens, UniProt P22303)
protocol_details: biochemical
Type: biochemical
applied_conditions: pH 8; read-out: AChE IC50
pIC50: −log10 of the molar value.
Quick list: pIC50 per entry.

compound	pIC50
CCc1cccc(CC)c1NC(=O)Oc1ccc2c(c1)[C@]1(C)CCN(C)[C@@H]1N2C [Ex. 11, (-)-2',6-diethylphenylcarbamoylescroline]	5.83
CNC(=O)Oc1ccc2c(c1)[C@]1(C)CCO[C@@H]1N2C [(3) (-)-physovenine, (-)-physovenine, reference compound]	7.57
Cc1ccc(NC(=O)Oc2ccc3c(c2)[C@]2(C)CCN(C)[C@@H]2N3C)cc1 [Ex. 10, (-)-4'-methylphenylarbamoyleseroline]	6.86
Cc1ccccc1NC(=O)Oc1ccc2c(c1)[C@]1(C)CCO[C@@H]1N2C	7.89
Cc1cc(C)c(NC(=O)Oc2ccc3c(c2)[C@]2(C)CCN(C)[C@@H]2N3C)c(C)c1	5.89
Cc1ccccc1NC(=O)Oc1ccc2c(c1)[C@]1(C)CCN(C)[C@@H]1N2C [Ex. 7, (-)-2'-Methylphenylcarbamoyleseroline]	7.99

---

study_target: plasma BChE (Homo sapiens)
protocol_details: biochemical
applied_conditions: read-out: IC50 for BChE (printed once as RChE)

smiles_text	study_target	IC50 / nM
CC(C)c1ccc(NC(=O)Oc2ccc3c(c2)[C@]2(C)CCO[C@@H]2N3C)cc1	plasma BChE (Homo sapiens)	16.5
